system: K562; assay: Inhibitory concentration required against human chronic myelogenous leukemic K-562 cell line after 5h, using [3H]thymidine incorporation assay; format: functional, cell-based
# fulfilled = IC50 below 2 µg/mL (exclusive); not fulfilled = IC50 at/above 2 µg/mL

Solved cases (3 shown):
{"columns": ["molecule", "categoryLabel"],
 "data": [
  ["Sc1ncnc2nc[nH]c12 [MERCAPTOPURINE ANHYDROUS]", "not fulfilled"],
  ["Clc1nc(C#Cc2ccccc2)c2ncn(Cc3ccccc3)c2n1", "fulfilled"],
  ["Clc1nc2c(C#Cc3ccccc3)ncnc2n1C1CCOCC1", "not fulfilled"]
]}

## Input Would you kindly verify if IC50 of `C(#Cc1[nH]cnc2ncnc1-2)c1ccccc1` is strictly less than 2 µg/mL?
## Output not fulfilled

## Input Would you kindly verify if IC50 of OC[C@H]1OC(n2cnc3c(/C=C/c4ccccc4)ncnc32)[C@H](O)[C@@H]1O (stereo not given in full) is strictly less than 2 µg/mL?
## Output not fulfilled

## Input Would you kindly verify if IC50 of `C=Cc1ncnc2ncn(Cc3ccccc3)c12` is strictly less than 2 µg/mL?
## Output fulfilled

## Input Would you kindly verify if IC50 of `C(#Cc1ncnc2c1ncn2Cc1ccccc1)c1ccccc1` is strictly less than 2 µg/mL?
## Output not fulfilled

## Input Would you kindly verify if IC50 of `COC(=O)/C(C)=C/C#Cc1[nH]cnc2ncnc1-2` is strictly less than 2 µg/mL?
## Output not fulfilled

----------
system: K562; assay: Inhibitory concentration required against human chronic myelogenous leukemic K-562 cell line after 5h, using [3H]thymidine incorporation assay; format: functional, cell-based
# MET = IC50 below 2 µg/mL (exclusive); NOT MET = IC50 at/above 2 µg/mL

## Input Would you kindly verify if IC50 of `C=Cc1ncnc2c1ncn2Cc1ccccc1` is strictly less than 2 µg/mL?
## Output NOT MET

## Input Would you kindly verify if IC50 of `Clc1nc(/C=C/c2ccccc2)c2ncn(Cc3ccccc3)c2n1` is strictly less than 2 µg/mL?
## Output NOT MET

## Input Would you kindly verify if IC50 of OC[C@H]1OC(n2cnc3c(C#Cc4ccccc4)ncnc32)[C@H](O)[C@@H]1O (some centres not stated) is strictly less than 2 µg/mL?
## Output MET

## Input Would you kindly verify if IC50 of `C(#Cc1ncnc2c1ncn2C1CCOCC1)c1ccccc1` is strictly less than 2 µg/mL?
## Output NOT MET

## Input Would you kindly verify if IC50 of `C(#Cc1nc(-c2ccccc2)nc2c1ncn2Cc1ccccc1)c1ccccc1` is strictly less than 2 µg/mL?
## Output NOT MET

## Input Would you kindly verify if IC50 of Nc1nc(F)nc2c1ncn2[C@@H]1O[C@H](CO)[C@@H](O)[C@@H]1O [FLUDARABINE] is strictly less than 2 µg/mL?
## Output MET
